# MEASURED_TARGET: Glucocorticoid receptor (Homo sapiens)
# Sequence (P04150 whole entry): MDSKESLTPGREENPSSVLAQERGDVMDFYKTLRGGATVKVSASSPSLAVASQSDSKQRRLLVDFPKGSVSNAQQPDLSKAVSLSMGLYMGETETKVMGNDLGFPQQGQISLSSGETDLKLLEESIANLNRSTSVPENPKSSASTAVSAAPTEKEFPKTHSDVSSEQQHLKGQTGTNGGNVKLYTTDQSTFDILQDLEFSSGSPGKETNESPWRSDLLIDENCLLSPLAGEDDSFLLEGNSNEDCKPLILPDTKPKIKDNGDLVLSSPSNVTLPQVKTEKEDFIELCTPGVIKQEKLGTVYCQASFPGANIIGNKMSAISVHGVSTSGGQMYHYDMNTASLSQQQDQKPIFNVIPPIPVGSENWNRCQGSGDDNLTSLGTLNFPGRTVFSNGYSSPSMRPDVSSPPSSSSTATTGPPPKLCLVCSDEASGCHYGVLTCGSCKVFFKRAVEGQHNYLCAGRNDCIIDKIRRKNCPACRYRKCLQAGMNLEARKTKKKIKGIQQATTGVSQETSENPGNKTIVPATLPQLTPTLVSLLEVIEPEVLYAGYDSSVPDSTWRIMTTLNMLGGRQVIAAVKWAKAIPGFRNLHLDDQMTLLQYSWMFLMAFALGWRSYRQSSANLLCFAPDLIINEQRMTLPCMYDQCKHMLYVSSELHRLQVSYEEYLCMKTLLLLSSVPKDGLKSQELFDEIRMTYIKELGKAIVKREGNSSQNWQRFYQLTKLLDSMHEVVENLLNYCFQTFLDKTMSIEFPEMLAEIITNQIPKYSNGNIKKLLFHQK
# PROTOCOL_TEXT: Agonist activity at glucocorticoid receptor in human A549 cells assessed as inhibition of PMA-induced AP-1 activation by luciferase reporter gene assay
# Assay type: cell-based
MEASURED_PARAMETER: EC50 (µM)

Example compounds with recorded EC50:
CCC(c1ccc2c(cnn2-c2ccc(F)cc2)c1)C(C)(C)C(=O)Nc1nccs1 (racemic): 0.087
CC(C)C(c1ccc2c(cnn2-c2ccc(F)cc2)c1)C(C)(C)C(=O)Nc1nncs1 (racemic): 0.081
CC(C)(C(=O)Nc1nncs1)C(c1ccccc1)c1ccc2c(cnn2-c2ccc(Cl)cc2)c1 (racemic): 0.023
CC(C)(C(=O)Nc1nncs1)[C@@H](c1ccccc1)c1ccc2c(cnn2-c2ccc(F)cc2)c1: 0.0024

[A] CC(C)(C(=O)Nc1ccsc1)C(c1ccccc1)c1ccc2c(cnn2-c2ccc(F)cc2)c1 (racemic)
[B] CC(C)Cn1ncc2cc(C(c3ccccc3)C(C)(C)C(=O)Nc3nncs3)ccc21 (racemic)
[C] CC(C)(C(=O)Nc1nncs1)C(c1ccccc1)c1ccc2c(cnn2Cc2ccccc2)c1 (racemic)
[D] CC(C)(C(=O)Nc1nncs1)[C@H](c1ccccc1)c1ccc2[nH]ncc2c1
Place the items in sequence of falling EC50. Rank the items, then write their labels in that order.
C, D, B, A
